B1: CPXM2 (parent)
chain: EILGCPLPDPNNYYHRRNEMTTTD

variants of: B1; assay: protein stability index of a GFP-peptide fusion (GPS, HEK-293T) (PSI 1-6); higher = more stable; conditions: c terminus: a fixed tail appended;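 note: lentivirally expressed fusions sorted by FACS into six bins by GFP to DsRed ratio, PSI derived from sequencing read proportions per bin multiplied by bin number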
Catalogue of variants with associated protein stability index
Give only the figure.

ALTERATION	REPORTED_VALUE
D24T	2.82
I2Q	4.76
C5H	3.91
T22M	3.28
E19P	2.86
D9M	2.92

Indicate its recorded protein stability index; the variant in question is M20A
3.99

// fetch protein stability index given entry R17W
2.63

Return value of protein stability index for input Y14Q , no commentary.
3.96

Give protein stability index for P8S
3.17

Fill in protein stability index for record E1S
3.54
